- testTarget: Trypsin, from human pancreas (Homo sapiens, UniProt P07477)
- assayName: Enzymatic assay, trypsin
- measurementConditions: at 100 μM
Where a SMILES comes first, the peptide text is derived from it.
Give measured Trypsin at 100 μM % for each item. Keep answers brief.

IN: Give me measured Trypsin at 100 μM %, please, for this molecule: CCCC[C@@H]1NC(=O)[C@@H]2CCCN2C(=O)[C@H]2CCCN2C(=O)[C@H](Cc2ccc(O)cc2)NC(=O)[C@@H]2CSSC[C@H](NC1=O)C(=O)N[C@@H]([C@@H](C)O)C(=O)N[C@@H](CCCCN)C(=O)N[C@@H](CO)C(=O)N[C@@H](CC(=O)O)C(=O)N1CCC[C@H]1C(=O)N1CCC[C@H]1C(=O)N[C@@H]([C@@H](C)CC)C(=O)N2 [Ex. 44] (HELM PEPTIDE1{[Nle].C.T.K.S.D.P.P.I.C.Y.[dP].P}$PEPTIDE1,PEPTIDE1,2:R3-10:R3|PEPTIDE1,PEPTIDE1,1:R1-13:R2$$$V2.0)
OUT: 100%

IN: # return recorded Trypsin at 100 μM % for input CC[C@H](C)[C@@H]1NC(=O)[C@@H]2CCCN2C(=O)[C@H]2CCCN2C(=O)[C@H](CCCNC(=N)N)NC(=O)[C@@H]2CSSC[C@H](NC1=O)C(=O)N[C@@H]([C@@H](C)O)C(=O)N[C@@H](CCCCN)C(=O)N[C@@H](CO)C(=O)N[C@@H](CC(=O)O)C(=O)N1CCC[C@H]1C(=O)N1CCC[C@H]1C(=O)N[C@@H](CCC(N)=O)C(=O)N2 [Ex. 17] (HELM PEPTIDE1{I.C.T.K.S.D.P.P.Q.C.R.[dP].P}$PEPTIDE1,PEPTIDE1,2:R3-10:R3|PEPTIDE1,PEPTIDE1,1:R1-13:R2$$$V2.0)
OUT: 90.0%

IN: Give Trypsin at 100 μM % for CCCC[C@@H]1NC(=O)[C@@H]2CCCN2C(=O)[C@H]2CCCN2C(=O)[C@H](CC2CCCCC2)NC(=O)[C@@H]2CSSC[C@H](NC1=O)C(=O)N[C@@H]([C@@H](C)O)C(=O)N[C@@H](C)C(=O)N[C@@H](CO)C(=O)N[C@@H]([C@@H](C)CC)C(=O)N1CCC[C@H]1C(=O)N1CCC[C@H]1C(=O)N[C@@H](CCC(N)=O)C(=O)N2 [Ex. 97] (HELM PEPTIDE1{[Nle].C.T.A.S.I.P.P.Q.C.[Cha].[dP].P}$PEPTIDE1,PEPTIDE1,2:R3-10:R3|PEPTIDE1,PEPTIDE1,1:R1-13:R2$$$V2.0)
OUT: 9.5%

IN: Tell me its Trypsin at 100 μM % given CCCC[C@@H]1NC(=O)[C@@H]2CCCN2C(=O)[C@H]2CCCN2C(=O)[C@H](CCC(N)=O)NC(=O)[C@@H]2CSSC[C@H](NC1=O)C(=O)N[C@@H]([C@@H](C)O)C(=O)N[C@@H](C)C(=O)N[C@@H](CO)C(=O)N[C@@H]([C@@H](C)CC)C(=O)N1CCC[C@H]1C(=O)N1CCC[C@H]1C(=O)N[C@@H](CCC(N)=O)C(=O)N2 [Ex. 91] (HELM PEPTIDE1{[Nle].C.T.A.S.I.P.P.Q.C.Q.[dP].P}$PEPTIDE1,PEPTIDE1,2:R3-10:R3|PEPTIDE1,PEPTIDE1,1:R1-13:R2$$$V2.0) as the entry.
OUT: 0%

Source listed as patent US8658604B2.
